# GI50 measurements, system: HCT-15
# unit: µM | format: bare number

Given item C=Cc1cc(OC)c2c(c1)c(=O)oc1c2cc(OC)c2c(O)ccc(C3OC(C)C(O)C(C)(O)C3O)c21 (stereo not given) , the value recorded as its GI50 is 0.0489

Given item `Cc1c(S(=O)(=O)N/C(=N\O)Nc2ccc(Cl)c(Cl)c2)sc2ccc(Cl)cc12` , the value recorded as its GI50 is 17.1

Given item `CCCCCC(=O)OCC(=O)[C@H]1[C@H](C)C[C@H]2[C@@H]3C[C@H](F)C4=C/C(=N/OC(=O)c5cccc6c(=O)c7ccccc7[nH]c56)C=C[C@]4(C)[C@H]3[C@@H](O)C[C@@]21C` , the value recorded as its GI50 is 26.6

Given item `COc1ccc(-c2cc(Cc3cccs3)c(=O)[nH]n2)cc1` , the value recorded as its GI50 is 49

Given item O=C1C2C3C=CC(C2C(=O)N1CN1CCSCC1)C1C2C(=O)N(CN4CCSCC4)C(=O)C2C31 (stereo not given) , the value recorded as its GI50 is 34.8

Given item `CN(C)CCCNC(=O)c1cccc2nc3ccccc3nc12` , the value recorded as its GI50 is 15.2

Given item `Clc1ccc(-c2nn3c(COc4ccc(OCc5nnc6sc(-c7ccc(Cl)cc7)nn56)c(Cl)c4)nnc3s2)cc1` , the value recorded as its GI50 is 28

Given item `Cc1cc(NC(=O)NC(=O)c2ccccc2NC(=O)CN)ccc1Oc1ncc(Br)cn1` , the value recorded as its GI50 is 1.41

====

- System: HOP-18
- Experimental Details: NCI tumour cell line growth inhibition, 48 h
Active and inactive are the calls of the source. Rule as the data show it: active = GI50 up to about 1.1 µM and inactive = higher.
Each entry below carries its recorded GI50.

> print(dat)
                                   compound  study.target  readout.type          test.result
1  COc1cc2c(cc1OC)CC(=O)Nc1cc(OC)c(OC)cc1CC2        HOP-18          GI50  > 100 µM (inactive)

Given item `COc1ccc(CN[C@H]2CCc3cc(OC)c(OC)c(OC)c3-c3ccc(SC)c(=O)cc32)c(OC)c1OC` , the value recorded as its GI50 is 58.3 µM (inactive)

Given item COC(=O)C12C(=O)O[C@H](C)C1(O)C(C)C(=O)N2C (stereo not given in full) , the value recorded as its GI50 is > 100 µM (inactive)

Given item COc1ccc(O)cc1C(O)c1ccccc1 (stereo not given) , the value recorded as its GI50 is > 100 µM (inactive)

Given item CCCCCCCCC(O)C#CC(N)=O (stereo not given) , the value recorded as its GI50 is 12.6 µM (inactive)

Given item CC(C)=CC1C[C@H](C2CC=C3C2(C)CCC2[C@@]3(C)C(=O)CC3[C@]2(C)C=CC(=O)[C@]3(C)CO)CO1 (stereo not given in full) , the value recorded as its GI50 is 11 µM (inactive)

Given item `C1CN2CCN3CCN4CCN1[PH]243` , the value recorded as its GI50 is > 100 µM (inactive)

Given item `Cc1ccc(C)c(NC(=O)c2cc(-c3ccc([N+](=O)[O-])cc3)nc(N)n2)c1` , the value recorded as its GI50 is > 100 µM (inactive)

Given item `Nc1c(C(=O)Nc2ccccc2)[n+]([O-])c2ccccc2[n+]1[O-]` , the value recorded as its GI50 is 13.5 µM (inactive)

Given item C=CCCCCCCCCCP(=O)(c1ccccc1)c1ccc2c(c1)OCCOCCOCCOCCO2 (stereo not given) , the value recorded as its GI50 is 16.3 µM (inactive)
